- settings: human, in vivo
quantity-kind: Variability in plasma level accounted for by the CYP2D6 genotype
Units required after the number.

Memo: CC/C(=C(\c1ccccc1)c1ccc(OCCNC)cc1)c1ccccc1 [NDM-Tam, N-desmethyl-tamoxifen] , reported Variability in plasma level accounted for by the CYP2D6 genotype: 13%

Entry under test: CCC(=C(c1ccc(OCCNC)cc1)c1ccc(O[C@@H]2O[C@H](C(=O)O)[C@@H](O)[C@H](O)[C@H]2O)cc1)c1ccccc1 (mixture of isomers) [(E/Z)-4-OH-NDM-Tam-gluc] . Its Variability in plasma level accounted for by the CYP2D6 genotype was 23%

The measured Variability in plasma level accounted for by the CYP2D6 genotype associated with CC/C(=C(\c1ccc(O)cc1)c1ccc(OCCN(C)C)cc1)c1ccccc1 [(Z)-4-OH-Tam, (Z)-4-hydroxy-tamoxifen] reads 5%

Just so you know, measured Variability in plasma level accounted for by the CYP2D6 genotype for CCC(=C(c1ccccc1)c1ccc(OCCNC)cc1)c1ccc(O)cc1 [4′-OH-NDM-Tam, 4’-hydroxy-N-desmethyl-tamoxifen] came out at 18%
